Reported bioavailability values for the following compounds.
- assay-method-text: Oral bioavailability in Sprague-Dawley rat at 5 mg/kg
- Format: ADME, organism-based
- experimental-conditions: in vivo

entry-smiles	bioavailability (%)
O=C1NCc2c1cc(-c1ccnc(NC3CCCCC3)c1)nc2N1CCNCC1	5
N#Cc1cc(-c2ccnc(Nc3ccccc3)c2)nc(N2CCNCC2)c1	18
FC(F)(F)c1cc(-c2ccnc(NC3CCCCC3)c2)nc(N2CCNCC2)c1	31

====

- test-target: Serine/threonine-protein kinase D1 (Homo sapiens)
- Sequence (Q15139 whole entry): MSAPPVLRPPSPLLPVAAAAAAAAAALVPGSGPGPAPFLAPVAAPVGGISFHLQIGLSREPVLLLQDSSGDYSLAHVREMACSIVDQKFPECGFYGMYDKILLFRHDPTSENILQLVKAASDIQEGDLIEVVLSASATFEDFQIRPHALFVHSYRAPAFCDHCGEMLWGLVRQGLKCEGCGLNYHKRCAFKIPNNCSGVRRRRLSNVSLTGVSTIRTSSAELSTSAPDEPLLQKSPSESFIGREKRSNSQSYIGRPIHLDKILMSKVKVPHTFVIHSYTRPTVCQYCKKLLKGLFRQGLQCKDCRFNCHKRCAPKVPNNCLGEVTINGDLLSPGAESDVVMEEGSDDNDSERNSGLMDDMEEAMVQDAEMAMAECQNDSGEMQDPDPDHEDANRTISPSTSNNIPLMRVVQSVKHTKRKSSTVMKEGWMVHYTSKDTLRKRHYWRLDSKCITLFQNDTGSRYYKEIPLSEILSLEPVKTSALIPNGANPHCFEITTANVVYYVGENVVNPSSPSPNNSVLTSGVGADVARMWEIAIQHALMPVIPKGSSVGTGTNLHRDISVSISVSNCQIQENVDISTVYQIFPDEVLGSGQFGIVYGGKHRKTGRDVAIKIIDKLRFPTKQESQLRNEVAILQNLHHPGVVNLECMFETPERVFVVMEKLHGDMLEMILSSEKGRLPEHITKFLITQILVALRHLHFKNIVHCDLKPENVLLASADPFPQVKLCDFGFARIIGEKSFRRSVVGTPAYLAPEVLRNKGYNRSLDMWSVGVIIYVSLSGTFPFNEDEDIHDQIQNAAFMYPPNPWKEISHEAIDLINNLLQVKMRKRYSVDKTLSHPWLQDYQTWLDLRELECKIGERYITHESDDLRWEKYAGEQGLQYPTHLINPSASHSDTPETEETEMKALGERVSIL
- assay-method-text: Inhibition of PKD1 assessed as inhibition of HDAC5 neuclear export
pEC50: −log10 of the molar value.
endpoint-label: pEC50

entry-smiles	endpoint-label	comparison-operator	assay-value
N#Cc1cc(-c2ccnc(NC3CCCCC3)c2)nc(N2CCNCC2)c1	pEC50	=	7.18
CN1CCN(c2cc(C(N)=O)cc(-c3ccnc(NC4CCCCC4)c3)n2)CC1	pEC50	=	6.12
NCC1CCN(c2cc(C(N)=O)cc(-c3ccnc(NC4CCCCC4)c3)n2)CC1	pEC50	<	6.00
N#Cc1cc(-c2ccnc(Nc3ccccc3)c2)nc(N2CCNCC2)c1	pEC50	=	6.42
CC(C)Nc1cc(-c2cc(C(N)=O)cc(N3CCNCC3)n2)ccn1	pEC50	=	6.36
NC(=O)c1cc(N[C@@H]2CCNC2)nc(-c2ccnc(NC3CCCCC3)c2)c1	pEC50	<	6.00

====

- test-target: Serine/threonine-protein kinase D1 (Homo sapiens)
- assay-method-text: Inhibition of PKD1 by TR-FRET assay
pIC50: −log10 of the molar value.
Reported pIC50 values for the following molecules.

entry-smiles	comparison-operator	pIC50
NC(=O)c1cc(-c2ccnc(NC3CCCC3)c2)nc(N2CCNCC2)c1	=	8.22
O=C1NCc2c1cc(N1CCNCC1)nc2-c1ccnc(NC2CCCCC2)c1	=	9.00
N#Cc1cc(-c2ccnc(Nc3ccccc3)c2)nc(N2CCNCC2)c1	=	8.30
NCC1CCN(c2cc(C(N)=O)cc(-c3ccnc(NC4CCCCC4)c3)n2)CC1	=	7.34
NC(=O)c1cc(-c2ccnc(NC3CCCCC3)c2)nc(N2CCOCC2)c1	<	6.00
c1cc(-c2cc(-c3cc[nH]n3)cc(N3CCNCC3)n2)cc(NC2CCCCC2)n1	=	8.40
NC(=O)c1cc(N[C@@H]2CCNC2)nc(-c2ccnc(NC3CCCCC3)c2)c1	=	8.70
CC1(C)CN(c2cc(C(N)=O)cc(-c3ccnc(NC4CCCCC4)c3)n2)CCN1	=	7.26
c1cc(-c2cc(-c3cn[nH]c3)cc(N3CCNCC3)n2)cc(NC2CCCCC2)n1	>	9.00
NC(=O)c1cc(N[C@H]2CCNC2)nc(-c2ccnc(NC3CCCCC3)c2)c1	=	7.17

====

Reported clearance values for the following compounds.
- assay-method-text: Clearance in Sprague-Dawley rat at 2 mg/kg, iv and 5 mg/kg, po
- Format: ADME, organism-based
- experimental-conditions: in vivo

entry-smiles	measurement-units	clearance
O=C1NCc2c1cc(-c1ccnc(NC3CCCCC3)c1)nc2N1CCNCC1	mL/min/kg	86
N#Cc1cc(-c2ccnc(Nc3ccccc3)c2)nc(N2CCNCC2)c1	mL/min/kg	31
NC(=O)c1cc(-c2ccnc(NC3CCCCC3)c2)nc(N2CCNCC2)c1	mL/min/kg	97

Sourced from ChEMBL document CHEMBL1212911
